These entries and their values trace back to patent US20040147432A1.

- targetOrTestSystem: T1, human MCH-1R (human, UniProt Q99705 1-353)
- T1 construct: also called MCH-R1
- T1 sequence (Q99705 whole entry, form in doubt): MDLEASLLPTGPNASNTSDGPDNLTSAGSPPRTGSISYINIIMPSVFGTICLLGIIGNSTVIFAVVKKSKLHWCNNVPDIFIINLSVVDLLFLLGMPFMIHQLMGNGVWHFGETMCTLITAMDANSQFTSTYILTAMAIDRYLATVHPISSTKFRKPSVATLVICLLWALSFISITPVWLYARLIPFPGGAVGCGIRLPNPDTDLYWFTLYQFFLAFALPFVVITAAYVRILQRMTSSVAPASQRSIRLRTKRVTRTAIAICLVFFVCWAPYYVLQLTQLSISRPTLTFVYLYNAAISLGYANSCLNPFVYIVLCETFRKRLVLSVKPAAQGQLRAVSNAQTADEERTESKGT
- experimentSummary: SPA competition with [125I]-human MCH (Phe13, Tyr19) on receptor membranes
Bridges are numbered along the chain shown (N, C = ends). Where no end group is shown, it is not given here.
We begin with a simple list: items and their reported IC50.
propertyMeasured: IC50 (nM)

{"binder": "DFAMLRCMLGRVYRPCWQV (disulfide 7-16, also called Ala^3) [SEQ. ID. NO. 43]", "unitsOfMeasure": "nM", "recordedNumber": 0.5}
{"binder": "DFDMARCMLGRVYRPCWQV (disulfide 7-16, also called Ala^5) [SEQ. ID. NO. 45]", "unitsOfMeasure": "nM", "recordedNumber": 0.3}
{"binder": "DFDMLRCMLGRAYRPCWQV (disulfide 7-16, also called Ala^12) [SEQ. ID. NO. 50]", "unitsOfMeasure": "nM", "recordedNumber": 0.9}
{"binder": "DFDMLRCMLGRVYRPCAQV (disulfide 7-16, also called Ala^17) [SEQ. ID. NO. 54]", "unitsOfMeasure": "nM", "recordedNumber": 0.1}
{"binder": "DFDMLRCMLGRVARPCWQV (disulfide 7-16, also called Ala^13) [SEQ. ID. NO. 51]", "unitsOfMeasure": "nM", "recordedNumber": 253}
{"binder": "DFDALRCMLGRVYRPCWQV (disulfide 7-16, also called Ala^4) [SEQ. ID. NO. 44]", "unitsOfMeasure": "nM", "recordedNumber": 0.5}
{"binder": "DFDMLRCMLGRVFRPCYQV (disulfide 7-16, label prints Tyr^17 while the radioligand is Phe^13, Tyr^19; also called Phe^13, Tyr^17) [SEQ. ID. NO. 57]", "unitsOfMeasure": "nM", "recordedNumber": 0.6}
{"binder": "DFDMLRCMLGAVYRPCWQV (disulfide 7-16) [SEQ. ID. NO. 49]", "unitsOfMeasure": "nM", "recordedNumber": 169}
{"binder": "DFDMLRCMLGRVYRPCWQA (disulfide 7-16, also called Ala^19) [SEQ. ID. NO. 56]", "unitsOfMeasure": "nM", "recordedNumber": 0.4}
{"binder": "DFDMLRCMLGRVYRACWQV (disulfide 7-16, also called Ala^15) [SEQ. ID. NO. 53]", "unitsOfMeasure": "nM", "recordedNumber": 1.9}
{"binder": "DFDMLRCALGRVYRPCWQV (disulfide 7-16) [SEQ. ID. NO. 47]", "unitsOfMeasure": "nM", "recordedNumber": 40.1}
{"binder": "DADMLRCMLGRVYRPCWQV (disulfide 7-16, also called Ala^2) [SEQ. ID. NO. 42]", "unitsOfMeasure": "nM", "recordedNumber": 0.2}
{"binder": "DFDMLACMLGRVYRPCWQV (disulfide 7-16, also called Ala^6) [SEQ. ID. NO. 46]", "unitsOfMeasure": "nM", "recordedNumber": 4.5}
